# assay.target: hCA IV (Homo sapiens)
# assay.name: stopped-flow CA catalysed CO2 hydration assay, hCA IV
measured.metric: pKi
Give only the number. pKi is defined as minus log10 of concentration in molar units.

Cc1nn(-c2cccc(Cl)c2)c(C)c1S(N)(=O)=O [Compound 8g]
5.02

// pKi lookup, key: NS(=O)(=O)c1ccc(Cl)c(-n2cccn2)c1 [Compound 7n]
8.40

// pKi lookup, key: Cc1cc(-n2nc(C)c(S(N)(=O)=O)c2C)ccc1S(N)(=O)=O [Compound 9f]
7.66

###

# assay.target: hCA I (Homo sapiens)
# Sequence (P00915 whole entry): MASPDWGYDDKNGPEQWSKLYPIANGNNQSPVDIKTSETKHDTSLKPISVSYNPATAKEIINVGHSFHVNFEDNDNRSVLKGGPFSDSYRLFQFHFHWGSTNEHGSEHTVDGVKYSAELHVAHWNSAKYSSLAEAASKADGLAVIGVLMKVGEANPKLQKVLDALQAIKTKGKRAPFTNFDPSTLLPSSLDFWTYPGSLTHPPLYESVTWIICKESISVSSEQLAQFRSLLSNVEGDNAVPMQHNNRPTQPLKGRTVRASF
# assay.name: stopped-flow CA catalysed CO2 hydration assay, hCA I
measured.metric: Ki (nM)
Reply with just the number (in nM).

Cc1cc(C)n(-c2ccc(S(N)(=O)=O)c(C)c2)n1
260
Cc1nn(-c2ccccc2)c(C)c1S(N)(=O)=O
540
Cc1nn(-c2ccc(Cl)c(S(N)(=O)=O)c2)c(C)c1S(N)(=O)=O
890
Cc1nn(-c2ccc(S(N)(=O)=O)cc2)c(C)c1S(N)(=O)=O
330

Read the next record carefully.
// Ki lookup, key: Cc1cc(C)n(-c2ccc(S(N)(=O)=O)cc2)n1
462

###

# assay.target: hCA VII (Homo sapiens)
# Sequence (P43166 whole entry): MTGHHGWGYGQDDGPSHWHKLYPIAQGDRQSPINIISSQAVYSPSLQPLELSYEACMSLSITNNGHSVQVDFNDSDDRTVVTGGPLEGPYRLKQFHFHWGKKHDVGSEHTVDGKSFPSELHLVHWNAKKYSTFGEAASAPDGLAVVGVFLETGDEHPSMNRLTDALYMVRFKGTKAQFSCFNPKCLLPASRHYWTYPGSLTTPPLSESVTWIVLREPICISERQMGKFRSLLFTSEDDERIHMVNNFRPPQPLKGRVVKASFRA
# assay.name: stopped-flow CA catalysed CO2 hydration assay, hCA VII
# test.context: read-out: hCA Ki (μM) hCA VII; recombinant enzyme, stopped-flow CO2 hydration, 15 min preincubation, pH 8.3
measured.metric: Ki (µM)
Reply with just the number (in µM).

Solved cases (3 shown):
NS(=O)(=O)c1cnn(-c2cccc(Cl)c2)c1
0.24
Cc1ccc(S(N)(=O)=O)cc1-n1cccn1
0.059
Cc1cc(-n2cc(S(N)(=O)=O)cn2)ccc1S(N)(=O)=O
0.005

// Ki lookup, key: Cc1ccc(S(N)(=O)=O)cc1-n1cc(S(N)(=O)=O)cn1
0.014

###

# assay.target: hCA II (Homo sapiens, UniProt P00918)
# assay.name: stopped-flow CA catalysed CO2 hydration assay, hCA II
Cut-off 90 nM on Ki: below means MET, at or above means NOT MET.

Lab note: Ki threshold 90 nM. Does this molecule come in strictly under it? NS(=O)(=O)c1cnn(-c2ccc(Cl)cc2)c1
MET

###

# assay.target: UniProt P22748
# assay.name: stopped-flow CA catalysed CO2 hydration assay, hCA IV
measured.metric: pKi
Give only the number. pKi is defined as minus log10 of concentration in molar units.

Solved cases (5 shown):
Cc1nn(-c2ccccc2Cl)c(C)c1S(N)(=O)=O
5.14
Cc1cc(-n2cccn2)ccc1S(N)(=O)=O
5.47
Cc1nn(-c2ccc(S(N)(=O)=O)c(Cl)c2)c(C)c1S(N)(=O)=O
6.03
Cc1nn(-c2cc(S(N)(=O)=O)ccc2Cl)c(C)c1S(N)(=O)=O
5.36
NS(=O)(=O)c1ccc(-n2cccn2)cc1Cl
7.07

Find the measured pKi: item NS(=O)(=O)c1cnn(-c2ccc(Cl)cc2)c1 , target or system UniProt P22748.
5.15

Find the measured pKi: item Cc1nn(-c2ccc(Cl)c(S(N)(=O)=O)c2)c(C)c1S(N)(=O)=O , target or system UniProt P22748.
7.11

Find the measured pKi: item Cc1nn(-c2ccc(S(N)(=O)=O)cc2)c(C)c1S(N)(=O)=O , target or system UniProt P22748.
6.95

Find the measured pKi: item Cc1nn(-c2cccc(S(N)(=O)=O)c2)c(C)c1S(N)(=O)=O , target or system UniProt P22748.
7.19

###

Recorded pKi for the following compounds
# assay.target: hCA I (Homo sapiens)
# assay.name: stopped-flow CA catalysed CO2 hydration assay, hCA I
Give only the number. pKi is defined as minus log10 of concentration in molar units.

// pKi lookup, key: COc1cc(-n2nc(C)c(S(N)(=O)=O)c2C)ccc1S(N)(=O)=O
5.33

###

measured.metric: melting point

Cc1ccc(-n2cccn2)cc1S(N)(=O)=O
147 to 149 °C
Cc1ccc(S(N)(=O)=O)cc1-n1nc(C)c(S(N)(=O)=O)c1C
308 to 310 °C
Cc1cc(-n2cc(S(N)(=O)=O)cn2)ccc1S(N)(=O)=O
205 to 207 °C
COc1cc(-n2nc(C)c(S(N)(=O)=O)c2C)ccc1S(N)(=O)=O
256 to 258 °C
COc1ccc(-n2nc(C)c(S(N)(=O)=O)c2C)cc1S(N)(=O)=O
254 to 257 °C

// melting point lookup, key: NS(=O)(=O)c1ccc(-n2cccn2)cc1Cl
181 to 183 °C

// melting point lookup, key: NS(=O)(=O)c1cnn(-c2ccc(S(N)(=O)=O)c(Cl)c2)c1
195 to 197 °C

// melting point lookup, key: Cc1nn(-c2cc(S(N)(=O)=O)ccc2Cl)c(C)c1S(N)(=O)=O
230 to 232 °C

// melting point lookup, key: Cc1ccccc1-n1nc(C)c(S(N)(=O)=O)c1C
161 to 163 °C

// melting point lookup, key: Cc1cc(-n2cccn2)ccc1S(N)(=O)=O
161 to 163 °C

// melting point lookup, key: NS(=O)(=O)c1cnn(-c2ccc(Cl)cc2)c1
147 to 150 °C

// melting point lookup, key: COc1cc(-n2cccn2)ccc1S(N)(=O)=O
221 to 223 °C

// melting point lookup, key: Cc1nn(-c2ccccc2)c(C)c1S(N)(=O)=O
161 to 163 °C

###

# assay.target: hCA II (Homo sapiens, UniProt P00918)
# assay.name: stopped-flow CA catalysed CO2 hydration assay, hCA II
# test.context: read-out: hCA Ki (μM) hCA II; recombinant enzyme, stopped-flow CO2 hydration, 15 min preincubation, pH 8.3
Recorded Ki for the following compounds
Reply with just the number (in µM).

Solved cases (3 shown):
Cc1ccc(S(N)(=O)=O)cc1-n1cc(S(N)(=O)=O)cn1
0.03
Cc1ccc(S(N)(=O)=O)cc1-n1cccn1
0.059
NS(=O)(=O)c1cnn(-c2cccc(Cl)c2)c1
0.14

Read the next record carefully.
// Ki lookup, key: Cc1cc(-n2cc(S(N)(=O)=O)cn2)ccc1S(N)(=O)=O
0.049

###

# assay.target: hCA IV (Homo sapiens)
# assay.name: stopped-flow CA catalysed CO2 hydration assay, hCA IV
measured.metric: Ki (µM)
Reply with just the number (in µM).

NS(=O)(=O)c1ccc(Cl)c(-n2cc(S(N)(=O)=O)cn2)c1
0.022

// Ki lookup, key: Cc1cc(C)n(-c2ccc(S(N)(=O)=O)c(C)c2)n1
0.033

// Ki lookup, key: Cc1cc(C)n(-c2ccc(S(N)(=O)=O)cc2)n1
0.084

// Ki lookup, key: NS(=O)(=O)c1cnn(-c2ccc(S(N)(=O)=O)c(Cl)c2)c1
0.075

// Ki lookup, key: NS(=O)(=O)c1cnn(-c2ccc(Cl)c(S(N)(=O)=O)c2)c1
0.074

###

Recorded melting point for the following compounds

Solved cases (4 shown):
Cc1ccc(S(N)(=O)=O)cc1-n1cc(S(N)(=O)=O)cn1
185 to 188 °C
Cc1cc(C)n(-c2cc(S(N)(=O)=O)ccc2C)n1
112 to 114 °C
Cc1nn(-c2cccc(S(N)(=O)=O)c2)c(C)c1S(N)(=O)=O
223 to 225 °C
COc1ccc(S(N)(=O)=O)cc1-n1nc(C)cc1C
167 to 170 °C

Read the next record carefully.
// melting point lookup, key: NS(=O)(=O)c1cnn(-c2ccc(Cl)c(S(N)(=O)=O)c2)c1
232 to 235 °C

###

# assay.target: hCA IV (Homo sapiens, UniProt P22748)
# Sequence (P22748 19-312): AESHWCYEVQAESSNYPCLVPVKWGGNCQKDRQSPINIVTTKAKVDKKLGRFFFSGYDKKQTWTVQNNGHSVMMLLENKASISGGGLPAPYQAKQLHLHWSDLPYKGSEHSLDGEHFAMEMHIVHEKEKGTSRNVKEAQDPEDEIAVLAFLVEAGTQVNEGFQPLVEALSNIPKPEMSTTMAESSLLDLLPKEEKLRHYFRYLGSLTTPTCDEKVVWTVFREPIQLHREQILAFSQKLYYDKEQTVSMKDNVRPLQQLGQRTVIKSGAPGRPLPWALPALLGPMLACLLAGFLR
# assay.name: stopped-flow CA catalysed CO2 hydration assay, hCA IV
# test.context: read-out: hCA Ki (μM) hCA IV; recombinant enzyme, stopped-flow CO2 hydration, 15 min preincubation, pH 8.3
Recorded Ki for the following molecules
Reply with just the number (in µM).

Solved cases (2 shown):
Cc1ccc(S(N)(=O)=O)cc1-n1cc(S(N)(=O)=O)cn1 [Compound 9i]
7.86
Cc1cc(-n2cc(S(N)(=O)=O)cn2)ccc1S(N)(=O)=O [Compound 9g]
5.8

Read the next record carefully.
// Ki lookup, key: NS(=O)(=O)c1cnn(-c2cccc(Cl)c2)c1 [Compound 8h]
3.74

###

# assay.target: hCA I (Homo sapiens)
# assay.name: stopped-flow CA catalysed CO2 hydration assay, hCA I
measured.metric: Ki (µM)
Reply with just the number (in µM).

Solved cases (5 shown):
NS(=O)(=O)c1cnn(-c2ccc(S(N)(=O)=O)c(Cl)c2)c1
3.08
Cc1nn(-c2ccccc2Cl)c(C)c1S(N)(=O)=O
0.62
Cc1nn(-c2cccc(Cl)c2)c(C)c1S(N)(=O)=O
0.94
COc1ccc(-n2nc(C)c(S(N)(=O)=O)c2C)cc1S(N)(=O)=O
0.95
Cc1cc(-n2nc(C)c(S(N)(=O)=O)c2C)ccc1S(N)(=O)=O
0.47

// Ki lookup, key: NS(=O)(=O)c1ccc(Cl)c(-n2cccn2)c1
3.83

// Ki lookup, key: Cc1cc(C)n(-c2cc(S(N)(=O)=O)ccc2C)n1
4.21
